These entries and their values trace back to PubChem BioAssay AID1259418.

Quick reference for max activity among some compounds
Test: inhibitors of Toxoplasma growth in IFN-γ-primed HeLa – cell-based, ME49Luc, luciferase, 72 h, dose response (AID 1259418)
Conditions: T. gondii ME49Luc in IFN-y HeLa, active compounds read low, -100% = high-dose IFN-γ control wells; at 19.5 µM unless noted
In all, about 3,400 compounds went through this assay and about 840 (25%) were called active. Another 11% or so got no clear call; they are omitted. These entries were drawn from the full list. Potency and affinity values are given separately.

Reference set, count: 8
compound: COc1ccccc1CNC(=O)CCC1N=C2c3ccccc3N=C(SCc3ccc(F)cc3)N2C1=O (stereo not given)
max activity: 14.5% [at 0.16 µM] (inactive)

compound: COc1ccc(-c2nc(Nc3ccc(C)c(C)c3)c3ccccc3n2)cc1
max activity: 21.6% [at 0.16 µM] (inactive)

compound: O=C(CC1N=C2c3ccccc3N=C(SCc3cccc(F)c3)N2C1=O)NCc1ccccc1 (stereo not given)
max activity: -15% [at 1.35 µM] (inactive)

compound: CCOC(=O)CSC1=Nc2ccccc2C2=NC(CCC(=O)NCc3ccccc3)C(=O)N12 (stereo not given)
max activity: 43.1% (inactive)

compound: COc1ccc(-c2nc(Cn3nnc(-c4nc(-c5cccc(Cl)c5)no4)c3C)c(C)o2)cc1
max activity: -6.44% [at 0.35 µM] (inactive)

compound: Cc1ccccc1-c1nc(CN2CCN(C(=O)Nc3cccc(C)c3C)CC2)c(C)o1
max activity: -5.68% [at 2.6 µM] (inactive)

compound: O=C(CCC1N=C2c3ccccc3N=C(SCc3cccc(F)c3)N2C1=O)NCc1ccco1 (stereo not given)
max activity: 10.2% (inactive)

compound: COc1ccc2c(c1)NC1(CCN(C(=O)Cc3cccs3)CC1)c1cccn1-2
max activity: -16.4% [at 10 µM] (inactive)

Per the record, "COc1ccccc1-c1nc(Cn2nnc(-c3nc(-c4cccc(F)c4)no3)c2C)c(C)o1" has max activity of -3.46% [at 1.35 µM] (inactive)

Per the record, CC(c1cc2ccccc2s1)N(O)C(N)=O (stereo not given) has max activity of 22.5% (inactive)
